- experiment_notes: Bioavailability in squirrel monkey (dose 5 mg/kg)
- Type: ADME, organism-based, Saimiri sciureus
- assay_context: in vivo

>  <smiles_record>
O=C(O)CC1(CS[C@H](CCc2ccccc2C2(O)CCC2)c2cccc(/C=C/c3ccc4sc(Cl)c(Cl)c4n3)c2)CC1

>  <bioavailability>
22%

$$$$
>  <smiles_record>
O=C(O)CC1(CS[C@H](CCc2ccccc2C(F)(F)F)c2cccc(/C=C/c3ccc4sc(Cl)c(Cl)c4n3)c2)CC1

>  <bioavailability>
1%

$$$$
>  <smiles_record>
CC(C)(O)c1ccccc1CC[C@@H](SCC1(CC(=O)O)CC1)c1cccc(/C=C/c2ccc3sc(Cl)cc3n2)c1

>  <bioavailability>
31%

$$$$
>  <smiles_record>
O=C(O)CC1(CS[C@H](CCc2ccccc2Br)c2cccc(/C=C/c3ccc4sc(Cl)c(Cl)c4n3)c2)CC1

>  <bioavailability>
3%

$$$$

###

// reported IC50 per item
- assayed_target: Cysteinyl leukotriene receptor 1 (Cavia porcellus)
- experiment_notes: Inhibition of binding of [3H]LTD4 to guinea pig lung membrane supplemented with 0.05% human serum albumin(HSA)

>  <smiles_record>
O=C(O)CC1(CS[C@H](CCc2ccc(C3(O)CCC3)cc2)c2cccc(/C=C/c3ccc4sc(Cl)c(Cl)c4n3)c2)CC1

>  <unit_symbol>
nM

>  <IC50>
0.29

$$$$
>  <smiles_record>
CC(C)(O)c1ccccc1CC[C@@H](SCC1(CC(=O)O)CC1)c1cccc(/C=C/c2ccc3sccc3n2)c1

>  <unit_symbol>
nM

>  <IC50>
20.4

$$$$
>  <smiles_record>
O=C(O)CC1(CS[C@H](CCc2ccccc2C2(O)CCC2)c2cccc(/C=C/c3ccc4sc(Cl)c(Cl)c4n3)c2)CC1

>  <unit_symbol>
nM

>  <IC50>
0.34

$$$$
>  <smiles_record>
O=C(O)CC1(CS[C@H](CCc2ccccc2)c2cccc(/C=C/c3ccc4sc(Cl)c(Cl)c4n3)c2)CC1

>  <unit_symbol>
nM

>  <IC50>
0.37

$$$$

###

- experiment_notes: Clearance was estimated in two squirrel monkeys after iv administration at 5 mg/kg
- Assay type: ADME, organism-based
- Parameters: dose 5 mg/kg, route intravenous
- assay_context: in vivo
Lab note: compare clearance with 2 mL/min/kg, writing 1 if less and -1 if equal or more.

>  <smiles_record>
O=C(O)CC1(CS[C@H](CCc2ccccc2CO)c2cccc(/C=C/c3ccc4sc(Cl)c(Cl)c4n3)c2)CC1

>  <classification>
-1

$$$$
>  <smiles_record>
O=C(O)CC1(CS[C@H](CCc2ccc(C(F)(F)F)cc2)c2cccc(/C=C/c3ccc4sc(Cl)c(Cl)c4n3)c2)CC1

>  <classification>
1

$$$$
>  <smiles_record>
CC(C)(O)c1ccccc1CC[C@@H](SCC1(CC(=O)O)CC1)c1cccc(/C=C/c2ccc3scc(Cl)c3n2)c1

>  <classification>
1

$$$$
>  <smiles_record>
O=C(O)CC1(CS[C@H](CCc2ccccc2Br)c2cccc(/C=C/c3ccc4sc(Cl)c(Cl)c4n3)c2)CC1

>  <classification>
1

$$$$
>  <smiles_record>
CC(C)(O)c1ccccc1CC[C@@H](SCC1(CC(=O)O)CC1)c1cccc(/C=C/c2ccc3sc(Cl)c(Cl)c3n2)c1

>  <classification>
1

$$$$
>  <smiles_record>
O=C(O)CC1(CS[C@H](CCc2cccc(C3(O)CCC3)c2)c2cccc(/C=C/c3ccc4sc(Cl)c(Cl)c4n3)c2)CC1

>  <classification>
-1

$$$$
>  <smiles_record>
O=C(O)CC1(CS[C@H](CCc2ccccc2C(O)(C(F)(F)F)C(F)(F)F)c2cccc(/C=C/c3ccc4sc(Cl)c(Cl)c4n3)c2)CC1

>  <classification>
1

$$$$
>  <smiles_record>
O=C(O)CC1(CS[C@H](CCc2ccccc2)c2cccc(/C=C/c3ccc4sc(Cl)c(Cl)c4n3)c2)CC1

>  <classification>
1

$$$$
>  <smiles_record>
O=C(O)CC1(CS[C@H](CCc2ccccc2C(F)(F)F)c2cccc(/C=C/c3ccc4sc(Cl)c(Cl)c4n3)c2)CC1

>  <classification>
1

$$$$
>  <smiles_record>
CC(C)(O)c1ccccc1CC[C@@H](SCC1(CC(=O)O)CC1)c1cccc(/C=C/c2ccc3sc(F)c(F)c3n2)c1

>  <classification>
1

$$$$
>  <smiles_record>
CC(C)(O)c1ccc(CC[C@@H](SCC2(CC(=O)O)CC2)c2cccc(/C=C/c3ccc4sc(Cl)c(Cl)c4n3)c2)cc1

>  <classification>
-1

$$$$
>  <smiles_record>
O=C(O)CC1(CS[C@H](CCc2ccc(Br)cc2)c2cccc(/C=C/c3ccc4sc(Cl)c(Cl)c4n3)c2)CC1

>  <classification>
1

$$$$
>  <smiles_record>
CC(C)(O)c1ccccc1CC[C@@H](SCC1(CC(=O)O)CC1)c1cccc(/C=C/c2ccc3sc(Cl)cc3n2)c1

>  <classification>
1

$$$$
>  <smiles_record>
O=C(O)CC1(CS[C@H](CCc2ccc(C3(O)CCC3)cc2)c2cccc(/C=C/c3ccc4sc(Cl)c(Cl)c4n3)c2)CC1

>  <classification>
-1

$$$$
>  <smiles_record>
O=C(O)CC1(CS[C@H](CCc2ccc(F)cc2)c2cccc(/C=C/c3ccc4sc(Cl)c(Cl)c4n3)c2)CC1

>  <classification>
1

$$$$
>  <smiles_record>
O=C(O)CC1(CS[C@H](CCc2ccccc2C2(O)CCC2)c2cccc(/C=C/c3ccc4sc(Cl)c(Cl)c4n3)c2)CC1

>  <classification>
1

$$$$

###

Property: IC50; scope: individual compounds
- assayed_target: Cysteinyl leukotriene receptor 1 (Cavia porcellus)
- experiment_notes: Inhibition of binding of [3H]LTD4 to guinea pig lung membrane supplemented with 0.05% human serum albumin(HSA)

>  <compound>
CC(C)(O)c1ccccc1CC[C@@H](SCC1(CC(=O)O)CC1)c1cccc(COc2ccc3sc(Cl)c(Cl)c3n2)c1

>  <qualifier>
>

>  <IC50, nM>
150

$$$$
>  <compound>
O=C(O)CC1(CS[C@H](CCc2ccc(C(F)(F)F)cc2)c2cccc(/C=C/c3ccc4sc(Cl)c(Cl)c4n3)c2)CC1

>  <qualifier>
=

>  <IC50, nM>
1.43

$$$$
>  <compound>
O=C(O)CC1(CS[C@H](CCc2ccc(Br)cc2)c2cccc(/C=C/c3ccc4sc(Cl)c(Cl)c4n3)c2)CC1

>  <qualifier>
=

>  <IC50, nM>
1.03

$$$$
>  <compound>
CC(C)(O)c1ccccc1CC[C@@H](SCC1(CC(=O)O)CC1)c1cccc(OCc2ccc3sc(Cl)c(Cl)c3n2)c1

>  <qualifier>
=

>  <IC50, nM>
2.2

$$$$
>  <compound>
O=C(O)CC1(CS[C@H](CCc2ccccc2Br)c2cccc(/C=C/c3ccc4sc(Cl)c(Cl)c4n3)c2)CC1

>  <qualifier>
=

>  <IC50, nM>
1.93

$$$$
>  <compound>
O=C(O)CC1(CS[C@H](CCc2ccc(F)cc2)c2cccc(/C=C/c3ccc4sc(Cl)c(Cl)c4n3)c2)CC1

>  <qualifier>
=

>  <IC50, nM>
0.65

$$$$
>  <compound>
CC(C)(O)c1ccccc1CC[C@@H](SCC1(CC(=O)O)CC1)c1cccc(C2CC2c2ccc3sc(Cl)c(Cl)c3n2)c1 (some centres undefined)

>  <qualifier>
=

>  <IC50, nM>
9.12

$$$$
>  <compound>
CC(C)(O)c1ccc(CC[C@@H](SCC2(CC(=O)O)CC2)c2cccc(/C=C/c3ccc4sc(Cl)c(Cl)c4n3)c2)cc1

>  <qualifier>
=

>  <IC50, nM>
0.2

$$$$
>  <compound>
O=C(O)CC1(CS[C@H](CCc2ccccc2CO)c2cccc(/C=C/c3ccc4sc(Cl)c(Cl)c4n3)c2)CC1

>  <qualifier>
=

>  <IC50, nM>
0.48

$$$$

###

- experiment_notes: Bioavailability in squirrel monkey (dose 5 mg/kg)
- Assay type: ADME, organism-based, Saimiri sciureus
- assay_context: in vivo

>  <smiles_record>
CC(C)(O)c1ccccc1CC[C@@H](SCC1(CC(=O)O)CC1)c1cccc(/C=C/c2ccc3scc(Cl)c3n2)c1

>  <unit_symbol>
%

>  <bioavailability>
13

$$$$
>  <smiles_record>
O=C(O)CC1(CS[C@H](CCc2cccc(C3(O)CCC3)c2)c2cccc(/C=C/c3ccc4sc(Cl)c(Cl)c4n3)c2)CC1

>  <unit_symbol>
%

>  <bioavailability>
13

$$$$
>  <smiles_record>
O=C(O)CC1(CS[C@H](CCc2ccc(C(F)(F)F)cc2)c2cccc(/C=C/c3ccc4sc(Cl)c(Cl)c4n3)c2)CC1

>  <unit_symbol>
%

>  <bioavailability>
4

$$$$
>  <smiles_record>
CC(C)(O)c1ccccc1CC[C@@H](SCC1(CC(=O)O)CC1)c1cccc(/C=C/c2ccc3sc(F)c(F)c3n2)c1

>  <unit_symbol>
%

>  <bioavailability>
25

$$$$

Taken from ChEMBL document CHEMBL1128064.
